The values you see were collected from patent US20260049134A1.

Biological target: T1, PTPRG-Fc (ECD of human PTPRG, aa 20-736, fused to human Fc gamma 1) (human, UniProt P23470 20-736)
T1 construct: Made in-house in Expi293 cells; Used in ELISA and SPR; also called recombinant PTPRG-Fc; PTRPG; not shown: human IgG1 Fc (Fc gamma 1) after the hinge
T1 sequence: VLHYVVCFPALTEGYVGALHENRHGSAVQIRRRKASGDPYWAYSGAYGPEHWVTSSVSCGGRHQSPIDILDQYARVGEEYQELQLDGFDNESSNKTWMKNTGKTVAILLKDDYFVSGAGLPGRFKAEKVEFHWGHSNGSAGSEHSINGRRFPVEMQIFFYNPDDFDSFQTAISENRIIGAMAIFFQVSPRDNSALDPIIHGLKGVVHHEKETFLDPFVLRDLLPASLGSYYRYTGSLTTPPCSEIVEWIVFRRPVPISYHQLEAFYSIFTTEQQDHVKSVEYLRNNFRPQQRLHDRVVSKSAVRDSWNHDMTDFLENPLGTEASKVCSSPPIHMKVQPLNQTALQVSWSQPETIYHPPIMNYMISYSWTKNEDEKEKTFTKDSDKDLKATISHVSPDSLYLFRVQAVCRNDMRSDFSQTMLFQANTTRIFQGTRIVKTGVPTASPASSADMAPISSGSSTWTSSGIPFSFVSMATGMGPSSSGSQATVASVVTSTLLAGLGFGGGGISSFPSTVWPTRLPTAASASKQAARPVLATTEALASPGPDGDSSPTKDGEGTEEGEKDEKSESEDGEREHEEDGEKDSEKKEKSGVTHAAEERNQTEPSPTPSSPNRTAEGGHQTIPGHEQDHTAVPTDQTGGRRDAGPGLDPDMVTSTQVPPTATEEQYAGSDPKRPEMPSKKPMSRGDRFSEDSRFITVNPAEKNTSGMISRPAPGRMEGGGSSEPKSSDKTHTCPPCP
Test: ELISA on coated PTPRG-Fc, 150 ng IgG1; None 0.117
Here, each record is paired with measured ELISA Absorbance (405 nm-570 nm) data.
Number only, please.

In the examples that follow, each entry is paired with its recorded ELISA Absorbance (405 nm-570 nm).
[[record]]
binder = "HW-81 chimeric rabbit-human IgG1 LA/LA/PG (antibody, V domains shown, Fc-silenced (L234A/L235A/P329G) IgG1, lambda; Alexa Fluor 647-labeled in single-step flow cytometry; Cluster C-45) VH: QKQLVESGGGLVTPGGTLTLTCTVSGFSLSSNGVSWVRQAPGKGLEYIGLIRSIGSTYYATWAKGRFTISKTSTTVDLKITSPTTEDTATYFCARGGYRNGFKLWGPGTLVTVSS VL: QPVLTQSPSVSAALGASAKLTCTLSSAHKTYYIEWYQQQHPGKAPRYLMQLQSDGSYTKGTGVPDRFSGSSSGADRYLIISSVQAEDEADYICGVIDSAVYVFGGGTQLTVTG"
property_label = "ELISA Absorbance (405 nm-570 nm)"
test_value = 0.122

[[record]]
binder = "HW-28 chimeric rabbit-human IgG1 LA/LA/PG (antibody, V domains shown, Fc-silenced (L234A/L235A/P329G) IgG1, lambda; Alexa Fluor 647-labeled in single-step flow cytometry; Cluster C-45) VH: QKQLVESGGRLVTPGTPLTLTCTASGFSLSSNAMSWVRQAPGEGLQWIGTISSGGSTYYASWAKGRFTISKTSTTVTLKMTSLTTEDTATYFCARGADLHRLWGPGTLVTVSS VL: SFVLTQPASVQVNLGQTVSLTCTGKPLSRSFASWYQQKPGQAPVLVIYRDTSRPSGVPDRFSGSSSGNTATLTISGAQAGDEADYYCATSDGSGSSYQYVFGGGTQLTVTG"
property_label = "ELISA Absorbance (405 nm-570 nm)"
test_value = 0.121

[[record]]
binder = "HW-101 chimeric rabbit-human IgG1 LA/LA/PG (antibody, V domains shown, Fc-silenced (L234A/L235A/P329G) IgG1, lambda; Alexa Fluor 647-labeled in single-step flow cytometry; Cluster C-97) VH: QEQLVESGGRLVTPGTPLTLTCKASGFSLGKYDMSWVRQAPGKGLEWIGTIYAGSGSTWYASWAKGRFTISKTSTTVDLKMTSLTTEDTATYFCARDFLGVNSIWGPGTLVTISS VL: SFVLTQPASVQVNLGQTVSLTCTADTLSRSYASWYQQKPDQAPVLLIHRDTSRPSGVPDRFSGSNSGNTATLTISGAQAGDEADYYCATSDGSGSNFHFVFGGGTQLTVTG"
property_label = "ELISA Absorbance (405 nm-570 nm)"
test_value = 0.097

[[record]]
binder = "HW-25 chimeric rabbit-human IgG1 LA/LA/PG (antibody, V domains shown, Fc-silenced (L234A/L235A/P329G) IgG1, lambda; Alexa Fluor 647-labeled in single-step flow cytometry; Cluster C-1) VH: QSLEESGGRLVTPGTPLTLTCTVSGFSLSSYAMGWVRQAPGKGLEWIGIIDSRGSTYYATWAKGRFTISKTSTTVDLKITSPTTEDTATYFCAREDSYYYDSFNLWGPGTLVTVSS VL: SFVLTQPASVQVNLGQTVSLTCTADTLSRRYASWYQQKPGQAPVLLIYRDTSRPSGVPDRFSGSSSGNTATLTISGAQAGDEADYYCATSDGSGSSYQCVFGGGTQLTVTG"
property_label = "ELISA Absorbance (405 nm-570 nm)"
test_value = 0.784


Now let's try a different one.
### Prompt Provide ELISA Absorbance (405 nm-570 nm) value for the following binder: TH9-0022 (antibody, human IgG1, kappa, L234A L235A, V domains shown, also called TH9-022; negative control) VH: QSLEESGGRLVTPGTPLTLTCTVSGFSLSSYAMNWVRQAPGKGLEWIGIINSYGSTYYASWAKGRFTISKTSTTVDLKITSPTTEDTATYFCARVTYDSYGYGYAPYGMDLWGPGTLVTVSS VL: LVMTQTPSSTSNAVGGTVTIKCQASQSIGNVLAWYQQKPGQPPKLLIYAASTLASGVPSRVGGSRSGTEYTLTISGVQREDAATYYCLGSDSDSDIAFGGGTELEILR
### Response 0.106
